# Tgt: Cytochrome P450 2C19 (Homo sapiens) (UniProt P33261)
# Sequence (P33261 whole entry, looked up): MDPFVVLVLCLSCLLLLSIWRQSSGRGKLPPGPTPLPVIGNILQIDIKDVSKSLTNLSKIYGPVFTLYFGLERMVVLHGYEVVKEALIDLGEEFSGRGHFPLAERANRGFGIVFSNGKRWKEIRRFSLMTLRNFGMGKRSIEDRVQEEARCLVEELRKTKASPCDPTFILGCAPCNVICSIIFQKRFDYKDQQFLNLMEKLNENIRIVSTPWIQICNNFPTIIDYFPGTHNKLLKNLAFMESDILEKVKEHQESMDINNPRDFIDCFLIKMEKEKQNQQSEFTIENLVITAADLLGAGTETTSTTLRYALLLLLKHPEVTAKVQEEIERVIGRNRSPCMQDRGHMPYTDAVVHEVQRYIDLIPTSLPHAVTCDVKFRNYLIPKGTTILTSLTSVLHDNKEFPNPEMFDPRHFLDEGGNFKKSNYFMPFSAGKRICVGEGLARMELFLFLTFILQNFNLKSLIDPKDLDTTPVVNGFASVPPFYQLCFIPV
# Assay text: blockers of cytochrome P450 2C19 activity – biochemical, luminescence, ADME assay, primary screen (AID 778)
# Condition info: CYP2C19 Supersomes, luciferin-H EGE luminescence, 30 min; at 5 µM; active compounds read high
The campaign covered roughly 96,000 compounds. About 20,000 (21%) were called active. These entries were drawn from the full list.
I would appreciate it if you labelled entries Satisfied when inhibition is 30% or higher, otherwise Not satisfied.

In [3]: df
Out[3]:
                                    molecule                                       tgt  assigned_class
 0  NC(=O)CSC1=Nc2ccccc2C2=NC(CCC(=O)NCc3ccc(F)cc3)C(=O)N12 (stereo unspecified)  Cytochrome P450 2C19 (Homo sapiens) (UniProt P33261)       Satisfied
 1  CCOc1ccc(NC(=O)CC2NCCNC2=O)cc1 (stereo unspecified)  Cytochrome P450 2C19 (Homo sapiens) (UniProt P33261)   Not satisfied
 2          NC(=NC(=O)c1ccccc1)C1=C(O)CCC1=O  Cytochrome P450 2C19 (Homo sapiens) (UniProt P33261)   Not satisfied
 3           COc1ccc(S(=O)(=O)N2CCCCC2)cc1Br  Cytochrome P450 2C19 (Homo sapiens) (UniProt P33261)       Satisfied
 4  Cc1ccc(C2(c3ccc(C)cc3)NC(=O)N(Cc3c(C)noc3C)C2=O)cc1  Cytochrome P450 2C19 (Homo sapiens) (UniProt P33261)   Not satisfied
 5          COc1ccc(S(=O)(=O)N2CCCC2)c(C)c1C  Cytochrome P450 2C19 (Homo sapiens) (UniProt P33261)       Satisfied
 6  Cc1ccc(-n2c(SCC(=O)NCc3ccc4c(c3)OCO4)nnc2-c2cccnc2)c(C)c1  Cytochrome P450 2C19 (Homo sapiens) (UniProt P33261)       Satisfied
 7  CCCCn1c(=S)[nH]c2cc(S(=O)(=O)N3CCCCC3)ccc21  Cytochrome P450 2C19 (Homo sapiens) (UniProt P33261)   Not satisfied
 8  FC(F)(F)c1nc2ccccc2nc1N/N=C/c1ccc(Cl)cc1  Cytochrome P450 2C19 (Homo sapiens) (UniProt P33261)   Not satisfied
 9  Clc1ccc2c(c1)C1=C(C(c3ccncc3)O2)C(c2ccc(Br)cc2)n2ncnc2N1 (stereo unspecified)  Cytochrome P450 2C19 (Homo sapiens) (UniProt P33261)       Satisfied
10  COc1cccc(N2C(=O)C3CCCN3C2c2ccc(F)cc2)c1 (stereo unspecified)  Cytochrome P450 2C19 (Homo sapiens) (UniProt P33261)   Not satisfied

* * *

# Tgt: Cytochrome P450 2C19 (Homo sapiens) (UniProt P33261)
# Assay text: blockers of cytochrome P450 2C19 activity – biochemical, luminescence, ADME assay, primary screen (AID 778)
# Condition info: CYP2C19 Supersomes, luciferin-H EGE luminescence, 30 min; at 5 µM
In all, about 96,000 compounds went through this assay and about 20,000 (21%) were called active.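 How the source made its calls: active means CYP2C19 inhibition above a set limit at 5 µM in the primary screen (cut at about 50% in these data); inactive means the rest.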 Not all results are given here.
Classes used: T (active), F (inactive)

>>> df
                                    compound  assigned_class
 0  Cc1c(Cl)c([N+](=O)[O-])nn1Cc1ccc(C(=O)N/N=C\c2cc(Cl)ccc2O)o1               F
 1  COCCOC(=O)C1=C(C)NC(=O)CC1c1cc2c(cc1Br)OCO2 (stereo unspecified)               T
 2  COCCNC(=O)C(c1ccc(C)o1)N(Cc1ccccc1)C(=O)Cn1nnc2ccccc21 (stereo unspecified)               F
 3  CCCCCCOC(=O)NCC(O)c1ccccc1 (stereo unspecified)               F
 4   Cc1ccc(OCCCC(=O)Nc2ccc(N3CCOCC3)cc2)cc1               F
 5  CCn1c(CSc2nncn2-c2ccc(OC)cc2)nc2cc(S(=O)(=O)N(C)C)ccc21               F
 6  COC(=O)c1ccc(C2C(Oc3ccccc3C)C(=O)N2CCc2ccc(OC)c(OC)c2)cc1 (stereo unspecified)               T
 7  COc1ccc(CCN2C(=O)c3[nH]nc(-c4ccccc4O)c3C2c2ccc(C)cc2)cc1OC (stereo unspecified)               F
 8  O=C(Cc1ccc(S(=O)(=O)N2CCOCC2)s1)NCCC(c1ccccc1)c1ccccc1               F
 9  CC(C)CC[n+]1ccn(C2=C([O-])c3ccccc3C(=O)/C2=N\S(=O)(=O)c2ccccc2)c1               F
10  COC(=O)c1ccc(C2CC(=O)Nc3cc(OC)c(OC)cc32)cc1 (stereo unspecified)               F
11  O=C(O)Cc1ccc(NC(=O)C2CCCCC2C(=O)O)cc1 (stereo unspecified)               F
12  O=C(Cc1ccccc1)n1nc(-c2ccccc2)nc1NCc1ccco1               F
13  O=C(Nc1ccccc1)O/N=C1\CCCCC1c1ccc([N+](=O)[O-])cc1[N+](=O)[O-] (stereo unspecified)               F
14      CN(CC#CCC(c1ccccc1)c1ccccc1)C(C)(C)C               F
15         O=C(NC(=O)c1ccccc1)NC(=O)c1ccccc1               F
16  O=C(Cc1c(F)cccc1Cl)N1CCN(C(=O)c2ccco2)CC1               F
17  CCN(CC)S(=O)(=O)c1ccc2nc(COC(=O)c3n[nH]c4ccccc34)[nH]c2c1               F
18  O=C(c1ccc2c(c1)OCCO2)C1CCN(S(=O)(=O)c2cccc(F)c2)CC1               F
19  CCN(CC)S(=O)(=O)c1ccc2nc(CSc3nnnn3-c3ccc(O)cc3)[nH]c2c1               T
20               CC(=O)c1ccc(OCCN2CCOCC2)cc1               F
